- target entity: Adrenergic receptor alpha-1 (Rattus norvegicus, UniProt P15823+P23944+P43140)
- Sequence (P15823 whole entry): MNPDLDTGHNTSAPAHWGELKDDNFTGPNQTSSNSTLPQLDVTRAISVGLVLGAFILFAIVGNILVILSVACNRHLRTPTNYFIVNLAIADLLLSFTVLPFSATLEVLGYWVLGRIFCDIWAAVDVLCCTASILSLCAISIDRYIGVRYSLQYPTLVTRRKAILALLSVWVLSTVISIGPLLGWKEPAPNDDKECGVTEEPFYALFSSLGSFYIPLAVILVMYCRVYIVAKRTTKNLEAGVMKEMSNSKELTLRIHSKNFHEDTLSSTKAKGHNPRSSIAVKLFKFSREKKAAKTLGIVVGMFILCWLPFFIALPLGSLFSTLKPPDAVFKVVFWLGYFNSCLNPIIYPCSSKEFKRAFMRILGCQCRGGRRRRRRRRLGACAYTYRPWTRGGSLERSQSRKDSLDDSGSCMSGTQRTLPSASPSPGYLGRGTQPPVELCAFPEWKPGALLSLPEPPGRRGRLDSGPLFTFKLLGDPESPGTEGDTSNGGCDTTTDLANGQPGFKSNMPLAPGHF
- Sequence (P23944 whole entry): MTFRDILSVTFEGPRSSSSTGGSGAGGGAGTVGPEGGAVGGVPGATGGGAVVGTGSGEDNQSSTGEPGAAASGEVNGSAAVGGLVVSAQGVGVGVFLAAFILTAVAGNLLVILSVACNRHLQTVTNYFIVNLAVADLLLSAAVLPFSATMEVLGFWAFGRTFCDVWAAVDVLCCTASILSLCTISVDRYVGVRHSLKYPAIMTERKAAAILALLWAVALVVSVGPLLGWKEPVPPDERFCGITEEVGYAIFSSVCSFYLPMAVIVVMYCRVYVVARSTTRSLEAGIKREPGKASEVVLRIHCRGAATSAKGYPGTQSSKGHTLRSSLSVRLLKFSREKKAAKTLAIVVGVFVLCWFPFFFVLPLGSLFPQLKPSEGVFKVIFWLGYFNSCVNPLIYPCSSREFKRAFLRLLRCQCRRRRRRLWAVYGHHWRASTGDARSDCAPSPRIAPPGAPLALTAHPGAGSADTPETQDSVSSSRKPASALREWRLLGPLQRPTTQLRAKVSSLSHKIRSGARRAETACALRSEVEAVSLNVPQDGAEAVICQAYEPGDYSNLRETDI
- Sequence (P43140 whole entry): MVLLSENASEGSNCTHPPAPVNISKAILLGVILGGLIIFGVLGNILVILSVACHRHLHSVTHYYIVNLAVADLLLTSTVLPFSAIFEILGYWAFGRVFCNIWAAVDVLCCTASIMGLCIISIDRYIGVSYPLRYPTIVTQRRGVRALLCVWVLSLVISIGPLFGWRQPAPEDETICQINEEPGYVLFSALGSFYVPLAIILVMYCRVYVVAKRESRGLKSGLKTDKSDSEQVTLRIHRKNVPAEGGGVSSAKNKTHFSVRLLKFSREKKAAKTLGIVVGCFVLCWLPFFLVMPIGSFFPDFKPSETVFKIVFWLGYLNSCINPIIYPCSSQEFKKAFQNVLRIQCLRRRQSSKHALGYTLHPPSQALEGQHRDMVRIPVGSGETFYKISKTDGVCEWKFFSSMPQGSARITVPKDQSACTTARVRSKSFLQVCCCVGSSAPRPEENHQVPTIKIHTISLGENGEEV
- measurement protocol: Inhibition of [3H]prazosin binding to alpha-1 adrenergic receptor from rat cortical membranes
- Assay type: cell membranes, Membrane
value type: IC50 (nM)
# output: bare number, implied unit nM

## Task Write down the reported IC50 (system: Adrenergic receptor alpha-1 (Rattus norvegicus, UniProt P15823+P23944+P43140)) of `Fc1ccc([C@H]2C[C@H](N3CCNCC3)c3ccccc32)cc1.O=C(O)/C=C\C(=O)O.O=C(O)/C=C\C(=O)O`
## Result 540

## Task Write down the reported IC50 (system: Adrenergic receptor alpha-1 (Rattus norvegicus, UniProt P15823+P23944+P43140)) of O.OC1=NCCN1CCN1CCN(C2CC(c3ccc(O)cc3)c3ccccc32)CC1 (configuration not stated)
## Result 560

## Task Write down the reported IC50 (system: Adrenergic receptor alpha-1 (Rattus norvegicus, UniProt P15823+P23944+P43140)) of O.O=c1[nH]c2ccccc2c(=O)n1CCN1CCN(C2CC(c3ccc(F)cc3)c3ccc(F)cc32)CC1 (configuration not stated)
## Result 5.3

## Task Write down the reported IC50 (system: Adrenergic receptor alpha-1 (Rattus norvegicus, UniProt P15823+P23944+P43140)) of `Fc1ccc([C@@H]2C[C@@H](N3CCNCC3)c3ccccc32)cc1.O=C(O)/C=C\C(=O)O.O=C(O)/C=C\C(=O)O`
## Result 37

## Task Write down the reported IC50 (system: Adrenergic receptor alpha-1 (Rattus norvegicus, UniProt P15823+P23944+P43140)) of `O=C(c1ccc(F)cc1)C1CCN(CCn2c(=O)[nH]c3ccccc3c2=O)CC1`
## Result 15

## Task Write down the reported IC50 (system: Adrenergic receptor alpha-1 (Rattus norvegicus, UniProt P15823+P23944+P43140)) of `Fc1ccc([C@@H]2C[C@@H](N3CCN(CCN4CCN=C4S)CC3)c3cc(F)ccc32)cc1.O=C(O)/C=C\C(=O)O.O=C(O)/C=C\C(=O)O`
## Result 13

## Task Write down the reported IC50 (system: Adrenergic receptor alpha-1 (Rattus norvegicus, UniProt P15823+P23944+P43140)) of COc1ccc(C2CC(N3CCN(CCN4CCNC4=O)CC3)c3ccccc32)cc1 (configuration not stated)
## Result 1400

## Task Write down the reported IC50 (system: Adrenergic receptor alpha-1 (Rattus norvegicus, UniProt P15823+P23944+P43140)) of CCN1CCN(CCN2CCN(C3CC(c4ccc(F)cc4)c4ccc(F)cc43)CC2)C1=O.Cl.Cl (configuration not stated)
## Result 34

## Task Write down the reported IC50 (system: Adrenergic receptor alpha-1 (Rattus norvegicus, UniProt P15823+P23944+P43140)) of Fc1ccc(C2CC(N3CCNCC3)c3ccccc32)cc1 (configuration not stated)
## Result 100

## Task Write down the reported IC50 (system: Adrenergic receptor alpha-1 (Rattus norvegicus, UniProt P15823+P23944+P43140)) of OCCN1CCN([C@@H]2C[C@@H](c3ccc(F)cc3)c3ccc(C(F)(F)F)cc32)CC1 (racemic)
## Result 17

## Task Write down the reported IC50 (system: Adrenergic receptor alpha-1 (Rattus norvegicus, UniProt P15823+P23944+P43140)) of `O=C(O)/C=C\C(=O)O.O=C(O)/C=C\C(=O)O.O=C1NCCN1CCN1CCN([C@@H]2C[C@@H](c3ccc(F)cc3)c3ccc(F)cc32)CC1`
## Result 10

## Task Write down the reported IC50 (system: Adrenergic receptor alpha-1 (Rattus norvegicus, UniProt P15823+P23944+P43140)) of Cl.Cl.O=C1CCCN1CCN1CCN(C2CC(c3ccc(F)cc3)c3ccc(F)cc32)CC1 (configuration not stated)
## Result 36

## Task Write down the reported IC50 (system: Adrenergic receptor alpha-1 (Rattus norvegicus, UniProt P15823+P23944+P43140)) of CN1CCN(CCN2CCN(C3CC(c4ccc(F)cc4)c4ccc(F)cc43)CC2)C1=O.Cl.Cl (configuration not stated)
## Result 11

The measured values listed here are drawn from ChEMBL document CHEMBL1124016.
